Origin of the recorded values: patent US10479793B2

# Tested On: recombinantly expressed His-tagged protein corresponding to amino acids 575-869 of human Tyk2 (Homo sapiens)
# Sequence (P29597 with tags, fused parts or gaps): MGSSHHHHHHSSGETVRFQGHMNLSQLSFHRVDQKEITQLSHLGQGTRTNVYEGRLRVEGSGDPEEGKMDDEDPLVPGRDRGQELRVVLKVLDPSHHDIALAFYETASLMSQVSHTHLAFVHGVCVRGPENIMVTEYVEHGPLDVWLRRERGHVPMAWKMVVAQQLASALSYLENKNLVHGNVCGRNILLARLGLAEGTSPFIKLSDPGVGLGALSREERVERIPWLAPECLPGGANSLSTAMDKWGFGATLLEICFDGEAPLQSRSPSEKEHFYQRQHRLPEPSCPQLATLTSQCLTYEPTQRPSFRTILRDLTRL
# Test Description: Probe displacement assay (scintillation proximity, tritiated probe)
# Stated Conditions: His-tagged Tyk2 (575-869) 2.5 nM, 40 nM radiolabeled probe, 30 minutes at room temperature
Experimental Endpoint: pEC50
# pEC50 is unitless: minus log10 of the molar concentration; print number only

Some entries whose results are on file:
CNc1cc(Nc2cccnc2OC)nn2c(C(=O)NC3CCC3)cnc12 = 8.57
Cc1cc(F)cc(Nc2nc(NC3CC3)c3ncc(C(N)=O)n3n2)c1 = 6.85
CNc1cc(Nc2cncc(OC)c2)nn2c(C(=O)NC3CC3)cnc12 = 8.00
CNc1cc(Nc2cc(C)cc(C)c2)nn2c(C(=O)N3CC(O)C3)cnc12 = 6.60

The value of pEC50 measured for the compound N#Cc1cc(Nc2cc(NC3CC3)c3ncc(C(=O)NCCO)n3n2)cc(C(F)(F)F)c1 turned out to be 6.80

The value of pEC50 measured for the compound CNc1cc(Nc2cccc(-c3ccc(OC(F)(F)F)cc3)n2)nn2c(C(=O)NC3(C#N)CC3)cnc12 turned out to be 7.40

The value of pEC50 measured for the compound Cc1cc(C)cc(Nc2cc(Nc3cnccn3)c3ncc(C(N)=O)n3n2)c1 turned out to be 6.55

The value of pEC50 measured for the compound CNc1cc(Nc2cc(F)cc(F)c2F)nn2c(C(=O)NCC(C)(C)CO)cnc12 turned out to be 8.43

The value of pEC50 measured for the compound CNc1cc(Nc2cccc(N3CCCC3=O)n2)nn2c(C(=O)NC3CC3)cnc12 turned out to be 8.08

The value of pEC50 measured for the compound CCCCCNc1cc(Nc2cc(C)cc(C)c2)nn2c(C(N)=O)cnc12 turned out to be 7.10

The value of pEC50 measured for the compound CNc1cc(Nc2cc(F)ccc2F)nn2c(C(=O)NC3CC3)cnc12 turned out to be 8.44

The value of pEC50 measured for the compound CCCNc1cc(Nc2cc(C)cc(C)c2)nn2c(C(N)=O)cnc12 turned out to be 7.52

The value of pEC50 measured for the compound CNc1cc(Nc2c(F)c(F)cc(F)c2F)nn2c(C(=O)NCC(C)(C)O)cnc12 turned out to be 7.52

The value of pEC50 measured for the compound NC(=O)c1cnc2c(NC3CC3)cc(Nc3cccc(F)c3)nn12 turned out to be 7.40

The value of pEC50 measured for the compound Cc1cc(F)cc(Nc2cc(NC3CC3)c3ncc(C(=O)NC4CC4)n3n2)c1 turned out to be 7.70

The value of pEC50 measured for the compound CNc1cc(Nc2cccnc2OC)nn2c(C(=O)NCCF)cnc12 turned out to be 8.53

The value of pEC50 measured for the compound CNc1cc(Nc2c(F)c(F)cc(F)c2F)nn2c(C(=O)NC3CC3)cnc12 turned out to be 8.40

The value of pEC50 measured for the compound CNc1cc(Nc2cccc(-c3ccccc3)n2)nn2c(C(=O)NC3CC3)cnc12 turned out to be 7.70

###

# Tested On: recombinantly expressed His-tagged protein corresponding to amino acids 575-869 of human Tyk2 (Homo sapiens)
# Test Description: Probe displacement assay (scintillation proximity, tritiated probe)
# Stated Conditions: His-tagged Tyk2 (575-869) 2.5 nM, 40 nM radiolabeled probe, 30 minutes at room temperature
Recorded EC50 values for a group of compounds are listed next.
# unit: nM | format: bare number

Some entries whose results are on file:
CNc1cc(Nc2cc(F)cc(F)c2F)nn2c(C(=O)NC3CC3)cnc12 = 2.97
CNc1cc(N2CCc3ccccc32)nn2c(C(=O)NC3CCC3)cnc12 = 7.57
COCCNc1cc(Nc2cc(C)cc(C)c2)nn2c(C(N)=O)cnc12 = 70
CNc1cc(Nc2cccnc2OC)nn2c(C(=O)NCCO)cnc12 = 6.05
Cc1cc(C)cc(Nc2cc(NCCCN(C)C)c3ncc(C(N)=O)n3n2)c1 = 70
CNc1cc(Nc2cccnc2F)nn2c(C(=O)NC3CC3)cnc12 = 20

The value of EC50 measured for the compound CNc1cc(Nc2cccnc2-n2cccn2)nn2c(C(=O)N[C@@H](C)CO)cnc12 turned out to be 50

The value of EC50 measured for the compound Cc1cc(C)cc(Nc2cc(Nc3cncs3)c3ncc(C(N)=O)n3n2)c1 turned out to be 50

The value of EC50 measured for the compound CNc1cc(Nc2ccccn2)nn2c(C(=O)N[C@@H]3C[C@@H]3F)cnc12 turned out to be 5.46

The value of EC50 measured for the compound Cc1cc(C)cc(Nc2cc(Nc3cccnc3)c3ncc(C(N)=O)n3n2)c1 turned out to be 70

The value of EC50 measured for the compound CNc1cc(Nc2cc(C)cc(F)c2)nn2c(C(=O)NC3CC3)cnc12 turned out to be 3.24

The value of EC50 measured for the compound CNc1cc(Nc2cccnc2-n2ccc(C)n2)nn2c(C(=O)NC3CC3)cnc12 turned out to be 270

The value of EC50 measured for the compound N#Cc1cc(Nc2cc(NC3CC3)c3ncc(C(=O)NC4CC4)n3n2)cc(C(F)(F)F)c1 turned out to be 190

The value of EC50 measured for the compound CNc1cc(Nc2cc(F)cc(F)c2F)nn2c(C(=O)NCC(C)(C)O)cnc12 turned out to be 7.03
